biological target: N-terminal Xaa-Pro-Lys N-methyltransferase 1 (Homo sapiens) (UniProt Q9BV86); experiment: qHTS Assay for Inhibitors of N-terminal methyltransferase 1 (NTMT1): LOPAC validation of the NTMT1 SAHH-coupled ThioGlo3 Assay (AID 1347143); details: recombinant NTMT1, SAHH-coupled ThioGlo3 fluorescence; series mostly up to 114 µM;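 further: SAH from peptide methylation measured as thiol fluorescence via SAHH coupling and ThioGlo3; nearly all actives have a fitted effect of over 70% in size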; further: potency means the concentration at half of the fitted maximal effect
Sequence (Q9BV86 whole entry, looked up): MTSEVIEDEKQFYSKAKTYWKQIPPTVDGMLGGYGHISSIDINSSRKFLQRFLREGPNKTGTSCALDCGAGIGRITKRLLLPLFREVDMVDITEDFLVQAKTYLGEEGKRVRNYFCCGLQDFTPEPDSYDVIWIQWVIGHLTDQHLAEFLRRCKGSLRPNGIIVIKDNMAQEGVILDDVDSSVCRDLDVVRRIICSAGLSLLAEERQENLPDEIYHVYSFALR
Records with an inconclusive call do not appear. Active and inactive are the calls of the source. The call rests on the fitted dose curve; in most records, active means well fitted inhibition curve with a large enough effect; inconclusive means small, poorly fitted or top-dose-only effect; inactive means no such curve, though single readings can be large or run the other way.

COMPOUND	Potency
C[C@H](Cc1ccccc1)Nc1ncnc2c1ncn2[C@@H]1O[C@H](CO)C(O)[C@H]1O (some centres undefined)	inactive
Cn1c(=O)c(-c2c(Cl)cccc2Cl)cc2cnc(Nc3ccc(N4CCOCC4)cc3)nc21	56.2 µM (active)
NO	inactive
CC(C)NC[C@H](O)COc1cccc2[nH]ccc12	inactive
Cc1cc2c(cc1Cl)N(C(=O)Nc1ccc(Oc3cccnc3C)nc1)CC2	8.91 µM (active)
CN(CCCOc1ccc(Cc2ccccc2)cc1)CCC(=O)O	inactive
Nc1nc(Nc2ccccc2)nc2c1ncn2[C@@H]1O[C@H](CO)C(O)[C@H]1O (some centres undefined)	39.8 µM (active)
NCCCS(=O)(=O)O	inactive
NC(=O)C(=O)O	inactive

###

system: Zika virus NS2B-NS3 protease (unlinked); assay: Optimization of GU AMC qHTS for Zika virus inhibitors: Unlinked NS2B-NS3 protease assay (AID 1347151); conditions: recombinant ZIKV NS2B-NS3 protease, fluorogenic AMC substrate; series mostly up to 52.5 µM; further: nearly all actives have a fitted effect of over 80% in size
Results filed as inconclusive are left out. The source made the active and inactive calls. The call rests on the fitted dose curve; in most records, active means well fitted inhibition curve with a large enough effect; inconclusive means small, poorly fitted or top-dose-only effect; inactive means no such curve, though single readings can be large or run the other way.
Outcomes: TRUE (active), FALSE (inactive)

COMPOUND	CAT
O=C(c1cc(O)c(O)c([N+](=O)[O-])c1)c1ccccc1F	TRUE
O=C1NC(O)=NC1(c1ccccc1)c1ccccc1	FALSE
Cc1ccc(O)c(N=Nc2ccccc2)n1	FALSE
O=C1NC(=O)/C(=C/c2ccc(-c3ccc(F)cc3O)o2)S1	TRUE
CC(C)CC(NP(=O)(O)O[C@@H]1O[C@@H](C)[C@H](O)[C@@H](O)[C@H]1O)C(=O)NC(Cc1c[nH]c2ccccc12)C(=O)O (stereo not given in full)	FALSE
CO[C@H]1O[C@@H]2O[C@]3(C)CC[C@@H]4[C@@H](C)CC[C@H]([C@H]1C)[C@]24OO3	FALSE
Cc1cc(NC2CCCCC2)nc(-n2nc(C)cc2C)n1	FALSE
COc1ccc(/C=C/c2nc(NCCCN(C)C)c3ccccc3n2)cc1	TRUE
CC(C)(C)c1ccc(S(=O)(=O)/C=C/C#N)cc1	FALSE
CCCCN(CC)c1nc(C)nc2c1c(C)cn2-c1c(C)cc(C)cc1C	TRUE
N[C@@H](CC(=O)O)C(=O)O	FALSE
NC[C@H]1O[C@@H](n2cnc3c(N)ncnc32)[C@H](O)[C@@H]1O	FALSE
CCNc1nc2c(ncn2[C@H]2C[C@H](O)[C@@H](CO)O2)c(=O)[nH]1	FALSE
COC1=C(OC)C(=O)c2ccccc2C1=O	FALSE
Cc1ccc(S(=O)(=O)/C=C/C#N)cc1	FALSE
CSc1nc(N)c2ncn([C@@H]3O[C@H](COP(=O)(O)OP(=O)(O)OP(=O)(O)O)[C@@H](O)[C@H]3O)c2n1	FALSE
CC(C)Cc1ccc([C@H](C)C(=O)O)cc1	FALSE
Nc1nc(Cl)nc2c1ncn2[C@@H]1O[C@H](CO)[C@@H](O)[C@H]1O	FALSE
Cc1cc(NC(=O)Nc2ccc3c(ccn3C)c2)sn1	FALSE
NCCCCCCCCCCN	FALSE
C[C@@H](CN1CCC(Cc2ccccc2)CC1)[C@@H](O)c1ccc(O)cc1	FALSE
CCCN(CC1CC1)c1nc(C)nc(Nc2c(Cl)cc(Cl)cc2Cl)c1Cl	FALSE
O=C(O)CC[C@@H](C(=O)O)N1C(=O)c2ccccc2C1=O	FALSE
NCCSSCCN	FALSE
NS(=O)(=O)C#Cc1ccccc1	FALSE
CC(N)C(=O)OC(C)(C)Cc1ccc(Cl)cc1 (stereo not given)	FALSE
Nc1ccn([C@H]2O[C@H](CO)[C@@H](O)C2(F)F)c(=O)n1	FALSE
COc1cccc(OC)c1OCCNCC1COc2ccccc2O1 (stereo not given)	FALSE
O=Nc1ccc2oc(=O)ccc2c1	FALSE
O=C(CCSCc1ccco1)NNC(=O)N1Cc2ccccc2Oc2ccc(Cl)cc21	FALSE
Nc1ncnc2c1ncn2[C@@H]1O[C@H](COP(=O)(O)OP(=O)(O)OP(=O)(O)OP(=O)(O)OC[C@@H]2O[C@H](n3cnc4c(N)ncnc43)[C@@H](O)[C@H]2O)[C@@H](O)[C@H]1O	FALSE
CCOC(=O)N1CCN(/[N+]([O-])=N/Oc2ccc([N+](=O)[O-])cc2[N+](=O)[O-])CC1	FALSE
Nc1ccn([C@@H]2O[C@H](CO)[C@@H](O)[C@@H]2O)c(=O)n1	FALSE
O=C(Nc1ccc2c(c1)CCN(Cc1ncn[nH]1)C2)c1ccccc1-c1ccc(C(F)(F)F)cc1	FALSE
NCCCCC(=O)O	FALSE
CCNC(=O)[C@H]1O[C@@H](n2cnc3c(N)nc(NCCc4ccc(CCC(=O)O)cc4)nc32)[C@H](O)C1O (stereo not given in full)	FALSE
CC(C)NC[C@@H](O)c1ccc(O)c(O)c1	FALSE
CN=c1nc(-c2ccccc2)n(-c2ccccc2)s1	FALSE
Fc1cccc(/C=N/N=C/c2cccc(F)c2)c1	FALSE
Nc1nc(Nc2ccccc2)nc2c1ncn2[C@@H]1O[C@H](CO)[C@@H](O)[C@H]1O	FALSE

###

experiment: qHTS of pediatric cancer cell lines to identify multiple opportunities for drug repurposing: Primary screen for Rh30 cells (AID 1347107); settings: Rh30 rhabdomyosarcoma viability, CellTiter-Glo luminescence, 48 h; series mostly up to 46 µM; further: nearly all actives have a fitted effect of over 75% in size
Inconclusive results are not listed. Activity calls are given as the source filed them. Calls follow the shape of the dose curve; as a rule, active = well fitted cell-killing curve with a large enough effect; inconclusive = small, poorly fitted or top-dose-only effect; inactive = no such curve, though single readings can be large or run the other way.
QUANTITY_KIND: outcome

COMPOUND	RESULT
O=C(Nc1ccc(C(=O)O)c(O)c1)c1ccccc1	inactive
CCC1C(=O)OCC1Cc1cncn1C (stereo not drawn)	inactive
Cc1c(N)c(=O)n(-c2ccccc2)n1C	inactive

###

tested on: GB4; experiment: qHTS profiling for inhibitors of Plasmodium falciparum proliferation (AID 504749); further: nearly all actives have a fitted effect of over 60% in size; conditions: P. falciparum in erythrocytes, SYBR Green DNA, 72 h; series mostly up to 28.7 µM
Records with an inconclusive call do not appear. Active and inactive are the calls of the source. Calls follow the shape of the dose curve; as a rule, active = well fitted inhibition curve with a large enough effect; inconclusive = small, poorly fitted or top-dose-only effect; inactive = flat fitted curve, though single readings scatter.
Outcomes: 1 (yes) for active, 0 (no) for inactive

MOLECULE	CAT
O=C(O)/C=C/C(O)c1ccc(Cl)cc1 (configuration not stated)	0 (no)
CC(=O)[C@]1(O)Cc2c(O)c3c(c(O)c2[C@@H](O[C@H]2C[C@H](N)[C@H](O)[C@H](C)O2)C1)C(=O)c1c(O)cccc1C3=O	1 (yes)
CCCCC[C@H](O)/C=C/[C@@H]1[C@@H](C/C=C\CCCC(=O)O)[C@@H](O)C[C@H]1O	0 (no)
COc1cc(CNC(=O)CCCC/C=C/C(C)C)ccc1O	0 (no)
Cc1[nH]cnc1CN1CCc2c(c3ccccc3n2C)C1=O	0 (no)
CCOC(=O)c1ccccc1O	0 (no)
Nc1c(CC(=O)O)cccc1C(=O)c1ccc(Br)cc1	0 (no)

###

target: Hexokinase-4 (Homo sapiens) + Glucokinase regulatory protein (Homo sapiens) (UniProt P35557+Q14397); test: qHTS assay for inhibitors of recombinant human GCK-GKRP interaction: HTRF assay (AID 743207); settings: recombinant GCK-GKRP HTRF binding, 60 min, with sorbitol-6-phosphate; series mostly up to 57.5 µM
Sequence (P35557 whole entry, looked up): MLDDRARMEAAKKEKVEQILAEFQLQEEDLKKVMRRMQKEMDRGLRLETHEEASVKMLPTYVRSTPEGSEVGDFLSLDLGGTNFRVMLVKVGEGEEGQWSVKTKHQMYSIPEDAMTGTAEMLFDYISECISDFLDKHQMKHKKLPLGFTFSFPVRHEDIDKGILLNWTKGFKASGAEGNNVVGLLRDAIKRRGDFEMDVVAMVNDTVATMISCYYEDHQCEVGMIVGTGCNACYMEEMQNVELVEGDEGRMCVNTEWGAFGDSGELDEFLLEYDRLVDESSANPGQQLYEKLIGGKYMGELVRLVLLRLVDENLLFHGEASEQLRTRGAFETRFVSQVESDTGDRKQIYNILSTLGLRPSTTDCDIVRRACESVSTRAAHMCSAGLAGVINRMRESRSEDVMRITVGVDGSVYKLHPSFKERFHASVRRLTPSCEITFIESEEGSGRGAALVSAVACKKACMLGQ
Sequence (Q14397 whole entry, looked up): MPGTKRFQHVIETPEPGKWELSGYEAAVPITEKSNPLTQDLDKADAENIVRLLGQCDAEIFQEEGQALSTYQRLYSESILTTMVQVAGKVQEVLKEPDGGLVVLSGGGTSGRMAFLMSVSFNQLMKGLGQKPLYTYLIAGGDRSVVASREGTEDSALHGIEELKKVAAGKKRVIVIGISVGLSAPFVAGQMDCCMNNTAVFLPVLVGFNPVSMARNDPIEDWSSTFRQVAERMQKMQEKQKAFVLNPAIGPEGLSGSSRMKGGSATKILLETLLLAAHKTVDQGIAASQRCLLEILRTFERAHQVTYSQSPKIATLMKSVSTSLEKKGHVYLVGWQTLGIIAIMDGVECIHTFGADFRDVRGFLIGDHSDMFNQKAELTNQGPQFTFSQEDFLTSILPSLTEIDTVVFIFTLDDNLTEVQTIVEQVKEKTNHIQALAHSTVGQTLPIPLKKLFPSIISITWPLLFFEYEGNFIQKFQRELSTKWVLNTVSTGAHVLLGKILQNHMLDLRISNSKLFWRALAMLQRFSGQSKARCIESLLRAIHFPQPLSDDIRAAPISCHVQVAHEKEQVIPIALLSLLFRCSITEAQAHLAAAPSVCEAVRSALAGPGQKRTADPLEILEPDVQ
The source made the active and inactive calls. Calls come from the whole dose curve; as a rule, active = well fitted curve in the direction sought with a large enough effect; inconclusive = small, poorly fitted or top-dose-only effect, or another doubt; inactive = no such curve, though single readings can be large or run the other way.
Outcomes: active, inactive

COMPOUND	CAT
Nc1ncnc2c1ncn2[C@@H]1O[C@H](COP(=O)(O)OP(=O)(O)OP(=O)(O)OP(=O)(O)OC[C@@H]2O[C@H](n3cnc4c(N)ncnc43)[C@@H](O)[C@H]2O)[C@@H](O)[C@H]1O	inactive
O=C(O)[C@@H]1C[C@H](C(=O)O)N1	inactive
CNC(=O)[C@H]1O[C@@H](n2cnc3c(NCc4cccc(I)c4)ncnc32)[C@H](O)[C@@H]1O	inactive
Fc1ccc(C(OCCCc2cnc[nH]2)c2ccc(F)cc2)cc1	inactive
Brc1c(Br)c(Br)c2n[nH]nc2c1Br	inactive
CN(C)c1nc(N)c(C(=O)N=C(N)N)nc1Cl	inactive
Oc1ccccc1O	inactive
COc1ccccc1N1CCN(CCCCNS(=O)(=O)c2cccc3c(N(C)C)cccc23)CC1	inactive
COc1ccccc1N1CCN(CCN(C(=O)c2ccc(I)cc2)c2ccccn2)CC1	inactive
COc1ccc2c(c1)CCC1C2CC[C@@]2(C)C1CC[C@@H]2NCCCCCCN1C(=O)CCC1=O (stereo not given in full)	inactive
OCC1O[C@H]([S-])[C@H](O)[C@@H](O)[C@@H]1O.[Au+] (stereo not given in full)	active
O=C(Nc1cccc(C(=O)Nc2ccc(S(=O)(=O)O)c3cc(S(=O)(=O)O)cc(S(=O)(=O)O)c23)c1)Nc1cccc(C(=O)Nc2ccc(S(=O)(=O)O)c3cc(S(=O)(=O)O)cc(S(=O)(=O)O)c23)c1	inactive
O=c1[nH]c2cc(Cl)c(Cl)cc2[nH]c1=O	inactive
N#C/C(=C\c1ccc(-c2cc(Cl)ccc2Cl)o1)C(=O)Nc1cccc2ncccc12	inactive
Cn1c(=O)c2[nH]c(-c3ccccc3)nc2n(C)c1=O	inactive

Provenance of the data: PubChem BioAssay (NCATS)
